Would you mind telling me the reported solubility at 24 h of each entry?
experiment: physchem; conditions: pH 7.4, aqueous buffer, kinetic from dmso stock, Solubility Range

Below: 5 molecules and their reported solubility at 24 h.
1) CCNC(=O)Nc1nc2cc(-c3cncc(N4CCC(C)(C(=O)O)CC4)c3)cc(-c3ccccn3)c2s1
> 800 µg/mL
2) CCNC(=O)Nc1nc2cc(-c3cnc(N4CCC(C)(C(=O)O)CC4)nc3)cc(-c3nccnc3C)c2s1
12.5 to 400 µg/mL
3) CCNC(=O)Nc1nc2cc(-c3cnc(N4CCC(C)(C(=O)OCC)CC4)nc3)cc(-c3ccccn3)c2s1
< 12.5 µg/mL
4) CCNC(=O)Nc1nc2cc(-c3cnc(N4CCC(C)(C(=O)O)CC4)nc3)cc(C(=O)NCC)c2s1
> 800 µg/mL
5) CCNC(=O)Nc1nc2cc(-c3cnc(N4CCC(C)(C(=O)O)CC4)nc3)cc(C#Cc3cncn3C)c2s1
400 to 800 µg/mL

Each of the following entries comes with a recorded value; kindly state solubility at 24 h for each.
1. CCNC(=O)Nc1nc2cc(-c3cnc(N4CCC(C)(C(=O)O)CC4)nc3)cc(-c3cc(C#N)ccn3)c2s1
2. CCNC(=O)Nc1nc2cc(-c3cnc(N4CCC(C)(C(=O)O)CC4)nc3)cc(C3CCOCC3)c2s1
3. CCNC(=O)Nc1nc2cc(-c3cnc(N4CCC(C)(C(=O)O)CC4)nc3)cc(-c3nc(OC)ccc3N)c2s1

1: < 12.5 µg/mL; 2: > 800 µg/mL; 3: > 800 µg/mL
